# TARGET: recombinant human BACE-1 (Homo sapiens, UniProt P56817)
# Sequence (P56817 46-501): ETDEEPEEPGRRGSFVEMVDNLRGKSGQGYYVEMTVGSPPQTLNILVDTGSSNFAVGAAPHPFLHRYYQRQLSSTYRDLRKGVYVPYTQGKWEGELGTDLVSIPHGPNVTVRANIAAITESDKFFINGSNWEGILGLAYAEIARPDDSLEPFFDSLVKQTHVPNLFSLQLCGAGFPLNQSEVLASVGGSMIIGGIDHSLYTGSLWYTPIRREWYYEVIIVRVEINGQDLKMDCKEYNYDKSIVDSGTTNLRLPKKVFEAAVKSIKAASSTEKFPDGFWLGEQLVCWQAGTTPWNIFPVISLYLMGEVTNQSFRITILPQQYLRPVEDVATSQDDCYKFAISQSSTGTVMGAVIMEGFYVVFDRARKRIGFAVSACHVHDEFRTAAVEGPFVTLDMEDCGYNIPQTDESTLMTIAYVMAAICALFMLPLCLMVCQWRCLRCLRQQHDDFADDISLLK
# ASSAY OVERVIEW: BACE-1 FRET peptide cleavage assay
# Assay type: biochemical
# APPLIED CONDITIONS: qualitative statement
RECORDED ENDPOINT: inhibitory activity against BACE-1 cleavage of FRET peptide, in words

1) NCCCCCO[C@H]1O[C@H](COS(=O)(=O)[O-])[C@@H](O[C@@H]2O[C@H](C(=O)[O-])[C@@H](O[C@H]3O[C@H](COS(=O)(=O)[O-])[C@@H](O[C@@H]4O[C@H](C(=O)[O-])[C@@H](O)[C@H](O)[C@H]4O)[C@H](O)[C@H]3NS(=O)(=O)[O-])[C@H](O)[C@H]2O)[C@H](O)[C@H]1NS(=O)(=O)[O-].[Na+].[Na+].[Na+].[Na+].[Na+].[Na+]	modest activity
2) CC(=O)N[C@H]1[C@@H](O[C@H]2[C@H](O)[C@@H](O)[C@H](O[C@H]3[C@H](O)[C@@H](NC(C)=O)[C@@H](OCCCCCN)O[C@@H]3COS(=O)(=O)[O-])O[C@H]2C(=O)[O-])O[C@H](COS(=O)(=O)[O-])[C@@H](O[C@@H]2O[C@@H](C(=O)[O-])[C@@H](O)[C@H](O)[C@H]2O)[C@@H]1O.[Na+].[Na+].[Na+].[Na+]	modest activity
3) CC(=O)N[C@H]1[C@@H](O[C@H]2[C@H](O)[C@@H](O)[C@H](O[C@H]3[C@H](O)[C@@H](NC(C)=O)[C@@H](OCCCCCN)O[C@@H]3COS(=O)(=O)[O-])O[C@@H]2C(=O)[O-])O[C@H](COS(=O)(=O)[O-])[C@@H](O[C@@H]2O[C@H](C(=O)[O-])[C@@H](O)[C@H](O)[C@H]2O)[C@@H]1O.[Na+].[Na+].[Na+].[Na+]	modest activity

Sourced from paper PMC2820250
